Measured PBM binding z-score, listed per entry for reference.
System: FXR:RXRa (NR concentration 270 nM, RXRa partner concentration 90 nM)
Assay: PBM binding z-score (relative to random genomic background probes); higher = stronger binding; sequences stand for … in GC…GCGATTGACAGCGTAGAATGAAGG
The answer should be written as a number, with no unit following it.

Worked examples, 5 sequences total:
[[record]]
seq_text = "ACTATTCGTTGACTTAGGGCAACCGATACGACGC"
system_name = "FXR:RXRa (NR concentration 270 nM, RXRa partner concentration 90 nM)"
parameter = "PBM binding z-score"
endpoint_value = 0.425

[[record]]
seq_text = "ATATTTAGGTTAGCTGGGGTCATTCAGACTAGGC"
system_name = "FXR:RXRa (NR concentration 270 nM, RXRa partner concentration 90 nM)"
parameter = "PBM binding z-score"
endpoint_value = 4.36

[[record]]
seq_text = "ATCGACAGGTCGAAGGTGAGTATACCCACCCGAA"
system_name = "FXR:RXRa (NR concentration 270 nM, RXRa partner concentration 90 nM)"
parameter = "PBM binding z-score"
endpoint_value = 0.612

[[record]]
seq_text = "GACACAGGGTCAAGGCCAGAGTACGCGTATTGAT"
system_name = "FXR:RXRa (NR concentration 270 nM, RXRa partner concentration 90 nM)"
parameter = "PBM binding z-score"
endpoint_value = 6.96

[[record]]
seq_text = "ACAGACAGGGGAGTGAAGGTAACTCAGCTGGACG"
system_name = "FXR:RXRa (NR concentration 270 nM, RXRa partner concentration 90 nM)"
parameter = "PBM binding z-score"
endpoint_value = 0.0883


Reported PBM binding z-score for CCAGACAGGTGAAAGGAAACTCAGTCTGGTACGC : what is it?
-0.00156

Reported PBM binding z-score for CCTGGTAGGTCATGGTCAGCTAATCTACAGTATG : what is it?
3.94

Reported PBM binding z-score for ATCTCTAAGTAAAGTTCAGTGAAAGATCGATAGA : what is it?
1.27

Reported PBM binding z-score for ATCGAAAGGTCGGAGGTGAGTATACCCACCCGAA : what is it?
2.56

Reported PBM binding z-score for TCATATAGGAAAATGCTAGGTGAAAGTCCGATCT : what is it?
1.09

Reported PBM binding z-score for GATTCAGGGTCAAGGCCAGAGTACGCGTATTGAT : what is it?
6.98

Reported PBM binding z-score for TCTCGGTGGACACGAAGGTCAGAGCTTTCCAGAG : what is it?
0.952

###

Test system: RARg homodimer (NR concentration 270 nM)
Assay: PBM binding z-score (relative to random genomic background probes); higher = stronger binding; sequences stand for … in GC…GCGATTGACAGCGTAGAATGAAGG
Measured PBM binding z-score, listed per entry for reference.
The answer should be written as a number, with no unit following it.

Worked examples, 6 sequences total:
[[record]]
seq_text = "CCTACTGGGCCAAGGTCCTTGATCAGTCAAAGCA"
parameter = "PBM binding z-score"
endpoint_value = -0.0984

[[record]]
seq_text = "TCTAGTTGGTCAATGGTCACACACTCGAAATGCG"
parameter = "PBM binding z-score"
endpoint_value = 1.31

[[record]]
seq_text = "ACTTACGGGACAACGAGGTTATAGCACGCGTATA"
parameter = "PBM binding z-score"
endpoint_value = 1.24

[[record]]
seq_text = "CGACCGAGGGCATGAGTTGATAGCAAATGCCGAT"
parameter = "PBM binding z-score"
endpoint_value = 1.89

[[record]]
seq_text = "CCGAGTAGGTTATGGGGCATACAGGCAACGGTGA"
parameter = "PBM binding z-score"
endpoint_value = 0.725

[[record]]
seq_text = "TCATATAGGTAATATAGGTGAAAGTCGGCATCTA"
parameter = "PBM binding z-score"
endpoint_value = 0.522


Observed PBM binding z-score on RARg homodimer (NR concentration 270 nM) for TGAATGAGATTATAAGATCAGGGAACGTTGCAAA , please.
0.172

Observed PBM binding z-score on RARg homodimer (NR concentration 270 nM) for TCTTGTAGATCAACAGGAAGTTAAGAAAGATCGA , please.
-0.339

Observed PBM binding z-score on RARg homodimer (NR concentration 270 nM) for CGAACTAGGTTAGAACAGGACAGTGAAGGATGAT , please.
0.607
